# Test system: Bacillus subtilis ATCC 6633
Parameter: MIC (µg/mL)

Molecule	Experimental Result
COc1cccc2c1C(=O)c1c(O)c3c(c(O)c1C2=O)CC(C)(O)CC3OC1OC(C)C(O)C(OC)C1O (stereo not shown)	40
COC1C(OCC2/C=C/C=C/C(=O)C(C)CC(C)C(OC3OC(C)CC(O)(C(C)O)C3O)C(C)/C=C/C(=O)OC2C)OC(C)C(O)C1OC (stereo not shown) [P10b, aldgamycin P10b]	1

I: COC1C(O)C(C)OC(OC2CC(C)(O)Cc3c(O)c4c(c(O)c32)C(=O)c2c(OC3OC(C)C(O)C(O)C3O)cccc2C4=O)C1O (stereo not shown)
II: COC1C(OCC2C(C)OC(=O)/C=C/C(C)C(OC3OC(C)CC4(OC(=O)OC4C)C3O)C(C)CC(C)C(=O)/C=C/C3OC32)OC(C)C(O)C1OC (stereo not shown) [P10a, aldgamycin G]
[Q] Hi there! Just curious which has the higher MIC between I and II . // caller expects the label of the chosen entry
[A] I
(I: 75 µg/mL, II: 1 µg/mL)

###

# Test Method Notes: Relative solubility in solvents
# Assay type: physicochemical
# Experimental Conditions: value = list of solvents; wrapped cells given line by line
Parameter: Relative solubility: Insoluble (solvents)

Molecule	Experimental Result
COc1cccc2c1C(=O)c1c(O)c3c(c(O)c1C2=O)CC(C)(O)CC3OC1OC(C)C(O)C(OC)C1O (stereo not shown)	n-hexane and toluene
COc1cccc2c1C(=O)c1c(O)c3c(c(O)c1C2=O)CC(C)(O)CC3OC1OC(C)C(O)C(O)C1O (stereo not shown)	n-hexane and toluene

###

# Test system: Micrococcus luteus ATCC 9314
# Test Method Notes: MIC, antimicrobial spectrum
# Type: cell-based
# Experimental Conditions: ATCC9314; Micrococcus luteus ATCC 9314
Parameter: MIC (µg/mL)

Compound	U	MIC
COC1C(OCC2/C=C/C=C/C(=O)C(C)CC(C)C(OC3OC(C)CC(O)(C(C)O)C3O)C(C)/C=C/C(=O)OC2C)OC(C)C(O)C1OC (centres unmarked) [P10b, aldgamycin P10b]	µg/mL	1
COC1C(OCC2C(C)OC(=O)/C=C/C(C)C(OC3OC(C)CC4(OC(=O)OC4C)C3O)C(C)CC(C)C(=O)/C=C/C3OC32)OC(C)C(O)C1OC (centres unmarked) [P10a, aldgamycin G]	µg/mL	1
COC1C(OCC2C(C)OC(=O)/C=C/C(C)C(OC3OC(C)CC(O)(C(C)O)C3O)C(C)CC(C)C(=O)/C=C/C3OC32)OC(C)C(O)C1OC (centres unmarked)	µg/mL	1

A: COC1C(O)C(C)OC(OC2CC(C)(O)Cc3c(O)c4c(c(O)c32)C(=O)c2c(OC3OC(C)C(O)C(O)C3O)cccc2C4=O)C1O (centres unmarked)
B: COc1cccc2c1C(=O)c1c(O)c3c(c(O)c1C2=O)CC(C)(O)CC3OC1OC(C)C(O)C(OC)C1O (centres unmarked)
[Q] Kindly compare A with B and tell me which has the lower MIC figure. // caller expects the label of the chosen entry
[A] B
(B: 5 µg/mL, A: 50 µg/mL)
